- TESTED_TARGET: T1, cynomolgus monkey BCMA (cynomolgus monkey, UniProt A0A2K5UD97 1-53)
- T1 construct: Soluble analyte in SPR; construct not described; also called cyBCMA; Cyno BCMA
- T1 sequence (A0A2K5UD97 entry or part of it): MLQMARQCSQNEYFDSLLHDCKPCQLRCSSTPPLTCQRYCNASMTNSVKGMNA
- PROCEDURE_SUMMARY: SPR, IgG on chip, cyBCMA analyte
MEASURED_ATTRIBUTE: koff (s⁻¹)
Output spec: scalar in s⁻¹, unitless text.

# input What does the record list as koff for COMBO_Rd4_6nM_C25 (antibody, V domains shown, IgG) VH: EVQLLESGGGLVQPGGSLRLSCAASGFTFSSYPMSWVRQAPGKGLEWVSAIGGSGGSTYYADSVKGRFTISRDNSKNTLYLQMNSLRAEDTAVYYCARYWPMDPWGQGTLVTVSS VL: EIVLTQSPGTLSLSPGERATLSCRASQSVSSPYLAWYQQKPGQAPRLLMYDASIRATGIPDRFSGSGSGTDFTLTISRLEPEDFAVYYCQQYQSWPLTFGQGTKVEIK ?
# output 0.000226

Attribution: patent US20190241669A1
